test system: TLR7 induced IL-6 secretion in human mononuclear cells (PBMC's); test: TLR7 induced IL-6 in human PBMC's; format: cell-based; details: TLR7 ligand 2 uM overnight, IL-6 AlphaLISA
pIC50: −log10 of the molar value.

>  <compound>
Cc1ccc(-n2nc(C3(C)COC3)cc2NC(=O)Nc2ccc(-c3nn(C)c4ncnc(N)c34)cc2Cl)cc1 [Example 18]

>  <system-name>
TLR7 induced IL-6 secretion in human mononuclear cells (PBMC's)

>  <pIC50>
6.00 to 7.00

$$$$
>  <compound>
Cc1ccc(-n2nc(C(C)(C)C(F)(F)F)cc2NC(=O)Nc2ccc(-c3csc4ncnc(N)c34)cc2Cl)cc1 [Example 24]

>  <system-name>
TLR7 induced IL-6 secretion in human mononuclear cells (PBMC's)

>  <pIC50>
> 7.00

$$$$
>  <compound>
Cc1ccc(-n2nc(C(C)(C)C)cc2NC(=O)C(=O)c2ccc(-c3nn(C)c4ncnc(N)c34)cc2)cc1 [Example 20]

>  <system-name>
TLR7 induced IL-6 secretion in human mononuclear cells (PBMC's)

>  <pIC50>
5.30 to 6.00

$$$$
>  <compound>
CC(C)c1ccc(-n2nc(C(C)(C)C)cc2NC(=O)Nc2ccc(-c3nn(C)c4ncnc(N)c34)cc2F)cc1 [Example 9]

>  <system-name>
TLR7 induced IL-6 secretion in human mononuclear cells (PBMC's)

>  <pIC50>
> 7.00

$$$$
>  <compound>
Cc1ccc(-n2nc(C(F)(F)F)cc2NC(=O)Nc2ccc(-c3nn(C)c4ncnc(N)c34)c(F)c2)cc1 [Example 13]

>  <system-name>
TLR7 induced IL-6 secretion in human mononuclear cells (PBMC's)

>  <pIC50>
6.00 to 7.00

$$$$
>  <compound>
CC(C)c1ccc(-n2nc(C(C)(C)C)cc2NC(=O)Cc2ccc(-c3nn(C)c4ncnc(N)c34)cc2)cc1 [Example 15]

>  <system-name>
TLR7 induced IL-6 secretion in human mononuclear cells (PBMC's)

>  <pIC50>
5.30 to 6.00

$$$$
>  <compound>
Cc1ccc(-n2nc(C(C)(C)C)cc2NC(=O)Nc2ccc(-c3csc4ncnc(N)c34)c(F)c2)cc1 [Example 6]

>  <system-name>
TLR7 induced IL-6 secretion in human mononuclear cells (PBMC's)

>  <pIC50>
> 7.00

$$$$
>  <compound>
Cc1ccc(-n2nc(C(C)(C)CO)cc2NC(=O)Nc2ccc(-c3csc4ncnc(N)c34)cc2Cl)cc1 [Example 21]

>  <system-name>
TLR7 induced IL-6 secretion in human mononuclear cells (PBMC's)

>  <pIC50>
< 5.30

$$$$
>  <compound>
Cc1ccc(-n2nc(C(C)(C)C)cc2NC(=O)Nc2ccc(-c3csc4ncnc(N)c34)cc2)cc1 [Example 12]

>  <system-name>
TLR7 induced IL-6 secretion in human mononuclear cells (PBMC's)

>  <pIC50>
> 7.00

$$$$
>  <compound>
Cc1ccc(-n2nc(C(C)(C)C)cc2NC(=O)C(O)c2ccc(-c3nn(C)c4ncnc(N)c34)cc2)cc1 (stereo not drawn) [Example 19]

>  <system-name>
TLR7 induced IL-6 secretion in human mononuclear cells (PBMC's)

>  <pIC50>
6.00 to 7.00

$$$$
>  <compound>
CC(C)c1ccc(-n2nc(C(C)(C)C)cc2NC(=O)Cc2ccc(-c3nn(C)c4ncnc(N)c34)cc2F)cc1 [Example 16]

>  <system-name>
TLR7 induced IL-6 secretion in human mononuclear cells (PBMC's)

>  <pIC50>
5.30 to 6.00

$$$$
>  <compound>
Cc1ccc(-n2nc(C(C)(C)C)cc2NC(=O)Nc2ccc(-c3csc4ncnc(N)c34)cc2Cl)cc1 [Example 11]

>  <system-name>
TLR7 induced IL-6 secretion in human mononuclear cells (PBMC's)

>  <pIC50>
> 7.00

$$$$
>  <compound>
Cc1ccc(-n2nc(C(C)(C)C)cc2NC(=O)Nc2ccc(-c3nn(C)c4ncnc(N)c34)c(Cl)c2)cc1 [Example 8]

>  <system-name>
TLR7 induced IL-6 secretion in human mononuclear cells (PBMC's)

>  <pIC50>
> 7.00

$$$$
>  <compound>
Cc1ccc(-n2nc(C(C)(C)C)cc2NC(=O)Nc2ccc(-c3nn(C)c4ccnc(N)c34)cc2F)cc1 [Example 26]

>  <system-name>
TLR7 induced IL-6 secretion in human mononuclear cells (PBMC's)

>  <pIC50>
> 7.00

$$$$
>  <compound>
CC(C)c1ccc(-n2nc(C(C)(C)C)cc2NC(=O)Nc2ccc(-c3nn(C)c4ncnc(N)c34)c(F)c2)cc1 [Example 3]

>  <system-name>
TLR7 induced IL-6 secretion in human mononuclear cells (PBMC's)

>  <pIC50>
> 7.00

$$$$
